Listed compounds paired with reported LD50
# EXPERIMENT DESCRIPTION: in vivo
# CONDITIONS USED: rat, intravenous, male Wistar rats weighing 300 g
Dear colleague, please return just the value in mg/kg, with no unit written.

COC(=O)C1=C(C)NC(C)=C(C(=O)OCC2CSC(C)(C)O2)C1c1cccc([N+](=O)[O-])c1 (racemic)	34.2
COC(=O)C1=C(C)NC(C)=C(C(=O)OCC2COC(C)(C)O2)C1c1cccc([N+](=O)[O-])c1 (stereo not shown)	22.5
COC(=O)C1=C(C)NC(C)=C(C(=O)OCC2COC(c3ccccc3)(c3ccccc3)O2)C1c1cccc([N+](=O)[O-])c1 (racemic)	44.4
COC(=O)C1=C(C)NC(C)=C(C(=O)OCC2COC(C)(c3ccc(Cl)cc3Cl)O2)C1c1cccc([N+](=O)[O-])c1 (racemic)	38.9
COC(=O)C1=C(C)NC(C)=C(C(=O)OCC2COC(C)(c3ccccc3)O2)C1c1cccc([N+](=O)[O-])c1 (racemic)	17.8
COC(=O)C1=C(C)NC(C)=C(C(=O)OCC2COC3(CCCCC3)O2)C1c1cccc([N+](=O)[O-])c1 (stereo not shown)	27.9

// moving on: another record for LD50
query: State the recorded LD50 for this entry: COC(=O)C1=C(C)NC(C)=C(C(=O)OCCN(C)Cc2ccccc2)C1c1cccc([N+](=O)[O-])c1 (stereo not shown) [nicardipine, reference compound]
result: 11.8
